The reported measurements were obtained from patent US20140056903A1.

# Measurement Target: T1, monkey GFRα3 expressed with a C-terminal myc-myc-hexahistidine tag (monkey (Mf), UniProt O60609 32-374 (human entry), limits assumed)
# T1 construct: also called MfGFRα3-mmh; MfGFRα3-mmH
# T1 chain: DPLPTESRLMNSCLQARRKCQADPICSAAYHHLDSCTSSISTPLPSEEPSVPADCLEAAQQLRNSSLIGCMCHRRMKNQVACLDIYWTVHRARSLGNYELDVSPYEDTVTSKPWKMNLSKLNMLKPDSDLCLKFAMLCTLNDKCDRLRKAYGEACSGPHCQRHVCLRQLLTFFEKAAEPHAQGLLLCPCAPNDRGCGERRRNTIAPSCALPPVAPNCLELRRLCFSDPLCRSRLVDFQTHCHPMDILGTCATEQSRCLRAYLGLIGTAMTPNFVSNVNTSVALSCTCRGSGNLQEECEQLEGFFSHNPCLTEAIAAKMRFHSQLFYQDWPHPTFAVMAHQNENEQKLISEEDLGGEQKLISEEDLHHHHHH
# Test Description: SPR, Ab captured, 25C
Measured Parameter: koff (s⁻¹)
# unit: s⁻¹ | format: bare number

Illustrative cases are given below, each with its answer.
Binder: H4H2344S (antibody, human IgG4, V domains shown, human IgG4 Fc (H4H)) VH: EVQLVESGGGVVQPGRSLRLSCAASGFSFSDYVMHWVRQAPGKGLEWVASIWFDGSNEFYADSVKGRFTISRDNSKNTLFLQMNSLRAEDTAVYYCAKKGVLVATSAFDIWGQGTMVTVSS VL: DIQMTQSPSSLSASVGDRVTITCRASQSINNYLNWYHQKPGKAPKLLIYAASSLQSGVPSRFSGSGSGTDYTLTISSLQPEDFGNYYCQQSYRTSMYTFGQGTKVEIK
koff [s⁻¹]: 0.000115
//
Binder: H4H2291S (antibody, human IgG4, V domains shown, human IgG4 Fc (H4H)) VH: EVQLVESGGGLVQPGESLRLSCAASGFTFSNYAMSWVRQAPGKGLEWVSVISGSGGSTYYADSVKGRFTMSRDNSKNTLYLQMNSLRAEDTAVYYCAKPPSRAARYFNYGMDVWGQGTTVTVSS VL: AIRMTQSPSSVSASVGDRVTITCRASQGISSWLAWYQQKPGKAPKLLIYAASSLQSGVPSRFSGSGSGTDFTLTISSLQPEDFATYYCQQANSFPFTFGGGTKVEIK
koff [s⁻¹]: 0.000279
//
Binder: H4H2350P (antibody, human IgG4, V domains shown, human IgG4 Fc (H4H)) VH: QVQLQESGPGLVKPSETLSLTCTVSGGSISTYYWSWFRQPPGKGLEWIGYIYYSGSTNHNPSLKSRVTISVDTSKNQFSLKLRSVTAADTAVYYCARVGPVGWGSWGNFDYWGQGTLVTVSS VL: DIQLTQSPSFLSASVGDRVTITCWASQGISSYLAWSQQKPGKAPKLLIYAASTLQSGVPSRFSGSGSGTEFTLTISSLQPEDFATYYCQQLNSYPWTFGQGTKVEIK
koff [s⁻¹]: 0.000111
//
Binder: H1M2243N (antibody, V domains shown, chimeric, human variable and mouse constant domains (H1M)) VH: QVQLVQSGAEVKKPGASVKVSCKASGYTFTSYGIIWVRQAPGQGLEWMGWISGYNGNTNYTQNLQGRVTMTTDTSTTTAYMELRSLRSDDTAVYYCARWGIATRPYYYYGMDVWGQGTTVTVSS VL: DIQMTQSPSSLSASVGDRVTITCRASQDITNYLAWFQQKPGKAPKSLIYAASSLQSGVPSKFSGSGSGTDFTLTISSLQPEDFATYYCQQYNSYPPTFGPGTKVDIK
koff [s⁻¹]: 0.000658

Task: koff lookup needed for H2aM2210N (antibody, mouse IgG2, V domains shown, chimeric, mouse IgG2 Fc (H2M/H2aM); also called H2M2210N) VH: EVQLLESGGGLVQPGGSLRVSCAASGFTFSTSAMSWVRQAPGKGLEWVSGISGIGGGSTYYADSVKGRFTISRDNSKNTLYLQMNSLRAEDTAVYFCAKFYKWNSYIFDLWGQGTMVTVSS VL: EIVLTQSPDTLSLSPGERATLSCRASQSVSSSYFAWYQQKPGQAPRLLMYSASSRATGIPDRFSGSGSGTDFSLTISRLEPEDFAVYYCQQYGRSLTFGGGTKVEIK , thanks.
Output: 0.0012
